The reported measurements were obtained from PubChem BioAssay AID2060337.

Test system: 832693-133-R-J1-PDC multi-cell spheroids, viability;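 note: spheroids exposed to the drugs for one week before the viability readout; 100% = DMSO vehicle control wells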
Experiment: Anticancer human tumor 832693-133-R-J1-PDC patient-derived head and neck squamous carcinoma cell line growth inhibition [IpAb]
Conditions: second compound 0.0316 µM; first compound 0.316 µM; active compounds read low
Reported values of viability, T/C for individual entries
Express the result in % but write the number alone.

Would you kindly share the measured viability, T/C for COc1c(OCCCN2CCOCC2)ccc2c3n(c(=NC(=O)c4cnc(N)nc4)nc12)CCN3 + CCN1CCN(Cc2ccc(Nc3ncc(F)c(-c4cc(F)c5nc(C)n(C(C)C)c5c4)n3)nc2)CC1 ?
3

Would you mind telling me what viability, T/C value was observed for C=CC(=O)N1CCN(c2nc(=O)n(-c3c(C)ccnc3C(C)C)c3nc(-c4c(O)cccc4F)c(F)cc23)C(C)C1 (stereo not drawn) + CCN1CCN(Cc2ccc(Nc3ncc(F)c(-c4cc(F)c5nc(C)n(C(C)C)c5c4)n3)nc2)CC1 ?
90.5

Look up viability, T/C for this molecule: Cn1nccc1Nc1nccc(-c2ccn(C(CO)c3ccc(Cl)c(F)c3)c(=O)c2)n1 (stereo not drawn) + CCN1CCN(Cc2ccc(Nc3ncc(F)c(-c4cc(F)c5nc(C)n(C(C)C)c5c4)n3)nc2)CC1
61.2
